Test: Pharmacokinetics in SD rats after single oral and intravenous administration
Type: in vivo
Details: SD, plasma; rat, PO 10 mg/kg, time point 7 hr; read-out: Plasma drug concentration
EXPERIMENTAL ENDPOINT: concentration at 7 hr (ng/mL)
Supply the numeric figure in ng/mL, leaving out any unit text.

According to the records, this compound COc1c(NC(=O)/C=C/CN(C)C)ccc2ncnc(Nc3cccc(Cl)c3F)c12 [Example 1] displays concentration at 7 hr of 72.6

---

Assay: Pharmacokinetics in SD rats after single oral and intravenous administration
Assay type: in vivo
Details: SD, plasma; rat, PO 10 mg/kg
EXPERIMENTAL ENDPOINT: AUC(0-inf)
Hi, when you answer, please include the unit after the number. Thanks!

Lab book: AUC(0-inf) of "COc1c(NC(=O)/C=C/CN(C)C)ccc2ncnc(Nc3cccc(Cl)c3F)c12" noted as 1780 ng·h/mL

---

Test: Pharmacokinetics in SD rats after single oral and intravenous administration
Format: in vivo
Conditions: SD, plasma; rat, IV 3 mg/kg, time point 0.5 hr; read-out: Plasma drug concentration
EXPERIMENTAL ENDPOINT: concentration at 0.5 hr (ng/mL)
Response body: numeric value in ng/mL, unit text excluded.

The compound "COc1c(NC(=O)/C=C/CN(C)C)ccc2ncnc(Nc3cccc(Cl)c3F)c12" showed concentration at 0.5 hr equal to 365

---

Assay: Pharmacokinetics in SD rats after single oral and intravenous administration
Assay type: in vivo
Conditions: SD, plasma; rat, PO 10 mg/kg
EXPERIMENTAL ENDPOINT: bioavailability (%)
Reply numerically in %, unit not repeated.

Entry "COc1c(NC(=O)/C=C/CN(C)C)ccc2ncnc(Nc3cccc(Cl)c3F)c12" — recorded bioavailability = 73.6

---

Assay: Pharmacokinetics in SD rats after single oral and intravenous administration
Type: in vivo
Conditions: SD, plasma; rat, IV 3 mg/kg, time point 0.083 hr; read-out: Plasma drug concentration
EXPERIMENTAL ENDPOINT: concentration at 0.083 hr
Give me the value, and tack the unit on after it.

// sample COc1c(NC(=O)/C=C/CN(C)C)ccc2ncnc(Nc3cccc(Cl)c3F)c12 [Example 1] , its concentration at 0.083 hr was 0.888 µg/mL

---

Test: Pharmacokinetics in SD rats after single oral and intravenous administration
Assay type: in vivo
Settings: SD, plasma; rat, IV 3 mg/kg, time point 4 hr; read-out: Plasma drug concentration
EXPERIMENTAL ENDPOINT: concentration at 4 hr (ng/mL)
Provide only the numeric value, understood in ng/mL.

Please fill in: concentration at 4 hr reported for COc1c(NC(=O)/C=C/CN(C)C)ccc2ncnc(Nc3cccc(Cl)c3F)c12 [Example 1] = 18.8

---

Assay: Pharmacokinetics in SD rats after single oral and intravenous administration
Format: in vivo
Details: SD, plasma; rat, PO 10 mg/kg, time point 0.5 hr; read-out: Plasma drug concentration
EXPERIMENTAL ENDPOINT: concentration at 0.5 hr (ng/mL)
Dear colleague, please return just the value in ng/mL, with no unit written.

// field: concentration at 0.5 hr; key: "COc1c(NC(=O)/C=C/CN(C)C)ccc2ncnc(Nc3cccc(Cl)c3F)c12" ; value = 227

---

Test: Ability to penetrate the blood-brain barrier: brain and whole blood concentration in SD rats
Format: in vivo
Settings: SD, brain/blood; rat, PO 10 mg/kg, 2 hours after administration; read-out: Brain/blood ratio
EXPERIMENTAL ENDPOINT: Kp at 2 hours
Give the figure only, with no unit attached.

Field Kp at 2 hours (entry "COc1c(NC(=O)/C=C/CN(C)C)ccc2ncnc(Nc3cccc(Cl)c3F)c12" ) reads 3.06
